TARGET_SYSTEM: NMDA receptor (GRIN1/GRIN2A subunits) (Homo sapiens, UniProt Q05586+Q12879)
Construct: expressed in transfected cells; host or cells: HEK 293 cells, stably transfected with GRIN1 and transiently transfected with GRIN2A and CD8
Sequence (Q12879 23-1464, other chains not shown): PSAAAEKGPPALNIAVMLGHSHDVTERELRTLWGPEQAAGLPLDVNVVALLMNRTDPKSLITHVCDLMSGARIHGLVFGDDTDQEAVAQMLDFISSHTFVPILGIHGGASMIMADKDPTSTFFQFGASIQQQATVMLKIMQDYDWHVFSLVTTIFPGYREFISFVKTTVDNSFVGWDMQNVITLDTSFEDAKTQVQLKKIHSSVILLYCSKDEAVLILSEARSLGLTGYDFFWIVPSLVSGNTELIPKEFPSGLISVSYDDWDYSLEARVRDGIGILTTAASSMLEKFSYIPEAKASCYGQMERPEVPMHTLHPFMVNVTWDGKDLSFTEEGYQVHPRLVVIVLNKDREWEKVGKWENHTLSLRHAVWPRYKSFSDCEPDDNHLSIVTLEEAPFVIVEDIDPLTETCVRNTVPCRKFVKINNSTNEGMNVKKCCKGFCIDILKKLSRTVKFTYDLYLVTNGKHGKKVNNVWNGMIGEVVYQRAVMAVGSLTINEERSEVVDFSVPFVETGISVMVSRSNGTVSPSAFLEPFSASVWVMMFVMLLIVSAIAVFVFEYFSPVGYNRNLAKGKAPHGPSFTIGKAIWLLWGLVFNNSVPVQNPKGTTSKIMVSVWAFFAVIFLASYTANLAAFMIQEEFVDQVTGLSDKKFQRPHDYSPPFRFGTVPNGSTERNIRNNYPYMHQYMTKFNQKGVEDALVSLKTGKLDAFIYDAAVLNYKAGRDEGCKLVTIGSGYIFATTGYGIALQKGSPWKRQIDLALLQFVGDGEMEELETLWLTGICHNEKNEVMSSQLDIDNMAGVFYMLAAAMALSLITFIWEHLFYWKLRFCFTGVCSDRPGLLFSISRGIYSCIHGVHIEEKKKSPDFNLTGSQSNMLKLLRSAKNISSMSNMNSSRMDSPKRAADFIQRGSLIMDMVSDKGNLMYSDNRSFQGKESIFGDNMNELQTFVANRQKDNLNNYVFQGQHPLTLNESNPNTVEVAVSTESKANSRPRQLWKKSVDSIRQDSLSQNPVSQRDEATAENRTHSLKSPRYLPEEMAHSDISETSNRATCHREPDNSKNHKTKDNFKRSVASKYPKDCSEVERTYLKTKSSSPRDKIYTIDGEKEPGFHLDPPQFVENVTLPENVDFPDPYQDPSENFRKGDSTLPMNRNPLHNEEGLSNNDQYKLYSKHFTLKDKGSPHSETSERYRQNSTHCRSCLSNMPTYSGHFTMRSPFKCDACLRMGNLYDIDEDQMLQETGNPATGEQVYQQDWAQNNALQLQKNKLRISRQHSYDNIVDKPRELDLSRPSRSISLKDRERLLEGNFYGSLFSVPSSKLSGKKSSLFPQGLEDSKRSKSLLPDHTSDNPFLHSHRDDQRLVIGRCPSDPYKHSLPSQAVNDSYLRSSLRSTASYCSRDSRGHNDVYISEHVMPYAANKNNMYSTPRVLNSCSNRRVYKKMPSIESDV
MEASUREMENT_PROTOCOL: NMDA potentiation, whole-cell patch-clamp in HEK cells
Type: cell-based
CONDITION_SET: HEK293, compound 0.1 uM, currents evoked by 30 μM NMDA and 5.0 μM Glycine, holding potential −80 mV, read-out: NMDA 1a2A (%) Potentiation 0.1 uM
QUANTITY_MEASURED: activation at 0.1 µM

1. C[C@H](CCC(C)(C)O)[C@H]1CC[C@H]2[C@@H]3CC[C@H]4C[C@](O)(C(F)(F)F)CC[C@]4(C)[C@H]3CC[C@]12C; 59%
2. CC(CCC(C)(C)O)[C@H]1CC[C@H]2[C@@H]3CC=C4C[C@@H](O)CC[C@]4(C)[C@H]3CC[C@]12C (some centres unmarked) [Compound 1]; 55%
3. C[C@H](CCC(C)(C)O)[C@H]1CC[C@H]2[C@@H]3CC[C@H]4C[C@](C)(O)CC[C@@H]4[C@H]3CC[C@]12C; 21%
4. C[C@H](CC(F)(F)CO)[C@H]1CC[C@H]2[C@@H]3CC=C4C[C@@H](O)CC[C@]4(C)[C@H]3CC[C@]12C; 31%
5. CNC(C)(C)CC[C@@H](C)[C@H]1CC[C@H]2[C@@H]3CC=C4C[C@@H](O)CC[C@]4(C)[C@H]3CC[C@]12C; 25%
